# Assayed target: Type-2 angiotensin II receptor (Homo sapiens)
# Sequence (P50052 whole entry): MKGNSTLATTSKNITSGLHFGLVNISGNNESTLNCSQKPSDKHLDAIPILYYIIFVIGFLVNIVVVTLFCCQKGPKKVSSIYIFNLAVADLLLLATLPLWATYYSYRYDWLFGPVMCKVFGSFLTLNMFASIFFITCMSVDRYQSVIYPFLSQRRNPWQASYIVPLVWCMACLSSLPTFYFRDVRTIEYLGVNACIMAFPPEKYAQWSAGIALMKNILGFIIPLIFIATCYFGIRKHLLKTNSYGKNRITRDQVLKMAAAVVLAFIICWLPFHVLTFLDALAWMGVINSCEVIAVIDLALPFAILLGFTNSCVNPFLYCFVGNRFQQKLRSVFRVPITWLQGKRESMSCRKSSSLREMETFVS
# Method description: Displacement of Europium-labeled angiotensin-2 from human AT2 receptor expressed in CHOK1 cell membranes after 120 mins by DELFIA
Measure name: Ki (nM)

[
  {
    "Molecule": "CCOc1nc(CC)c(CNC(=O)[C@@H](S)CC(C)C)n1Cc1ccc(-c2ccccc2C(=O)O)cc1F",
    "Assayed target": "Type-2 angiotensin II receptor (Homo sapiens)",
    "Endpoint value": 2510
  }
]

* * *

# Assayed target: Type-1 angiotensin II receptor (Homo sapiens)
# Sequence (P30556 whole entry): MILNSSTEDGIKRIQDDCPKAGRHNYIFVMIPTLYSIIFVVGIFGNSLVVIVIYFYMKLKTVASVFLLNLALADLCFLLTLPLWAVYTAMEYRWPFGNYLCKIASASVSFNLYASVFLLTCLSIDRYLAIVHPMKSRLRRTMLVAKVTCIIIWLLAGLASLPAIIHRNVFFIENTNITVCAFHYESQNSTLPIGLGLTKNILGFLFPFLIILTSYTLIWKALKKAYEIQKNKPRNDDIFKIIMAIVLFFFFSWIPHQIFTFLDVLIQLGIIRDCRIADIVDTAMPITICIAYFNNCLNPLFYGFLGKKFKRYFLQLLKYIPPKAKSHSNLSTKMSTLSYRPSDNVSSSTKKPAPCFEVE
# Method description: Displacement of Europium-labeled angiotensin-2 from human AT1 receptor expressed in CHOK1 cell membranes after 120 mins by DELFIA
Mark true (1) only for Ki values smaller than 80 nM; exact matches and larger values are false (0).

[
  {
    "Molecule": "CCCCc1nc(Cl)c(CNC(=O)CNC(=O)C(CS)Cc2ccccc2)n1Cc1ccc(-c2ccccc2-c2nnn[nH]2)cc1 (racemic)",
    "Assayed target": "Type-1 angiotensin II receptor (Homo sapiens)",
    "Class": "true (1)"
  },
  {
    "Molecule": "CCCCc1nc(Cl)c(CNC(=O)C(CS)CC2CCCC2)n1Cc1ccc(-c2ccccc2C(=O)O)cc1 (racemic)",
    "Assayed target": "Type-1 angiotensin II receptor (Homo sapiens)",
    "Class": "true (1)"
  },
  {
    "Molecule": "CCCCc1nc(CC)c(CNC(=O)[C@@H](CS)CC(C)C)n1Cc1ccc(-c2ccccc2C(=O)O)cc1",
    "Assayed target": "Type-1 angiotensin II receptor (Homo sapiens)",
    "Class": "true (1)"
  },
  {
    "Molecule": "CCCCc1nc(Cl)c(CNC(=O)C(CS)CCC(C)C)n1Cc1ccc(-c2ccccc2C(=O)O)cc1 (racemic)",
    "Assayed target": "Type-1 angiotensin II receptor (Homo sapiens)",
    "Class": "false (0)"
  },
  {
    "Molecule": "CCCCc1nc(Cl)c(CNC(=O)C(CS)C(C)CC)n1Cc1ccc(-c2ccccc2C(=O)O)cc1 (racemic)",
    "Assayed target": "Type-1 angiotensin II receptor (Homo sapiens)",
    "Class": "false (0)"
  },
  {
    "Molecule": "CCCCc1nc(CC(C)C)c(CNC(=O)[C@@H](CS)CC(C)C)n1Cc1ccc(-c2ccccc2C(=O)O)cc1",
    "Assayed target": "Type-1 angiotensin II receptor (Homo sapiens)",
    "Class": "true (1)"
  },
  {
    "Molecule": "CCCCc1nc(Cl)c(CNC(=O)C(CS)Cc2cccc3ccccc23)n1Cc1ccc(-c2ccccc2C(=O)O)cc1 (racemic)",
    "Assayed target": "Type-1 angiotensin II receptor (Homo sapiens)",
    "Class": "false (0)"
  },
  {
    "Molecule": "CCCCc1nc(Cl)c(CNC(=O)C(CS)C(C)C)n1Cc1ccc(-c2ccccc2C(=O)O)cc1 (racemic)",
    "Assayed target": "Type-1 angiotensin II receptor (Homo sapiens)",
    "Class": "false (0)"
  },
  {
    "Molecule": "CCCCc1nc(Cl)c(CNC(=O)C(CS)CC2CC2)n1Cc1ccc(-c2ccccc2C(=O)O)cc1 (racemic)",
    "Assayed target": "Type-1 angiotensin II receptor (Homo sapiens)",
    "Class": "true (1)"
  },
  {
    "Molecule": "CCCCc1nc(Cl)c(CNC(=O)C(CS)CC(CC)CC)n1Cc1ccc(-c2ccccc2C(=O)O)cc1 (racemic)",
    "Assayed target": "Type-1 angiotensin II receptor (Homo sapiens)",
    "Class": "true (1)"
  },
  {
    "Molecule": "CCCCc1nc(Cl)c(CNC(=O)[C@@H](S)CC(C)C)n1Cc1ccc(-c2ccccc2C(=O)O)cc1",
    "Assayed target": "Type-1 angiotensin II receptor (Homo sapiens)",
    "Class": "true (1)"
  },
  {
    "Molecule": "CCCOc1nc(CC)c(CNC(=O)[C@@H](CS)CC(C)C)n1Cc1ccc(-c2ccccc2C(=O)O)cc1",
    "Assayed target": "Type-1 angiotensin II receptor (Homo sapiens)",
    "Class": "true (1)"
  },
  {
    "Molecule": "CCCCc1nc(Cl)c(CNC(=O)[C@H](S)CC(C)C)n1Cc1ccc(-c2ccccc2C(=O)O)cc1",
    "Assayed target": "Type-1 angiotensin II receptor (Homo sapiens)",
    "Class": "false (0)"
  },
  {
    "Molecule": "CCOc1nc(CC)c(CNC(=O)[C@@H](S)CC(C)C)n1Cc1ccc(-c2ccccc2C(=O)O)cc1",
    "Assayed target": "Type-1 angiotensin II receptor (Homo sapiens)",
    "Class": "true (1)"
  },
  {
    "Molecule": "CCOc1nc(CC)c(CNC(=O)[C@@H](CS)CC(C)C)n1Cc1ccc(-c2ccccc2C(=O)O)c(F)c1",
    "Assayed target": "Type-1 angiotensin II receptor (Homo sapiens)",
    "Class": "true (1)"
  },
  {
    "Molecule": "CCCCc1nc(C2CC2)c(CNC(=O)[C@@H](CS)CC(C)C)n1Cc1ccc(-c2ccccc2C(=O)O)cc1",
    "Assayed target": "Type-1 angiotensin II receptor (Homo sapiens)",
    "Class": "true (1)"
  },
  {
    "Molecule": "CCCCc1nc(Cl)c(CNC(=O)C(CS)CCCC)n1Cc1ccc(-c2ccccc2C(=O)O)cc1 (racemic)",
    "Assayed target": "Type-1 angiotensin II receptor (Homo sapiens)",
    "Class": "false (0)"
  },
  {
    "Molecule": "CCCCc1nc(CC(C)C)c(CNC(=O)[C@@H](S)CC(C)C)n1Cc1ccc(-c2ccccc2C(=O)O)cc1",
    "Assayed target": "Type-1 angiotensin II receptor (Homo sapiens)",
    "Class": "true (1)"
  },
  {
    "Molecule": "CCCCc1nc(C)c(CNC(=O)[C@@H](CS)CC(C)C)n1Cc1ccc(-c2ccccc2C(=O)O)cc1",
    "Assayed target": "Type-1 angiotensin II receptor (Homo sapiens)",
    "Class": "true (1)"
  },
  {
    "Molecule": "CCCCc1nc(Cl)c(CNC(=O)C(CS)Cc2ccc(-c3ccccc3)cc2)n1Cc1ccc(-c2ccccc2C(=O)O)cc1 (racemic)",
    "Assayed target": "Type-1 angiotensin II receptor (Homo sapiens)",
    "Class": "false (0)"
  },
  {
    "Molecule": "CCCCc1nc(Cl)c(CNC(=O)C(CS)Cc2ccc3ccccc3c2)n1Cc1ccc(-c2ccccc2C(=O)O)cc1 (racemic)",
    "Assayed target": "Type-1 angiotensin II receptor (Homo sapiens)",
    "Class": "false (0)"
  }
]
